// IC50 lookup, one value per entry
tested on: Giardia intestinalis; assay: Anti-parasitic activity against Giardia intestinalis assemblage A ATCC 30957 trophozoites assessed as inhibition of cyst production incubated for 24 hrs; assay type: functional, organism-based; conditions: Giardia duodenalis, assemblage A ATCC 30957, 24 h
API: value field is a number in µM; no unit string.

CCOC(=O)C1=C[C@H](NC(=O)CF)[C@@H](NC(C)=O)[C@H](OC(CC)CC)C1; 41
CCOC(=O)C1=C[C@@H](OC(CC)CC)[C@H](NC(C)=O)[C@@H](N)C1 [OSELTAMIVIR]; 46
CCC(CC)O[C@@H]1CC(C(=O)O)=C[C@H](N)[C@H]1NC(C)=O; 42

Please look at the following molecule next.
Asked: Which IC50 reading was recorded for the molecule CCC(CC)O[C@@H]1CC(C(=O)O)=C[C@H](N=[N+]=[N-])[C@H]1NC(C)=O ?
Given back: 50
